# System Tested: Adenosine receptor A2b (Homo sapiens) (UniProt P29275)
# Sequence (P29275 whole entry): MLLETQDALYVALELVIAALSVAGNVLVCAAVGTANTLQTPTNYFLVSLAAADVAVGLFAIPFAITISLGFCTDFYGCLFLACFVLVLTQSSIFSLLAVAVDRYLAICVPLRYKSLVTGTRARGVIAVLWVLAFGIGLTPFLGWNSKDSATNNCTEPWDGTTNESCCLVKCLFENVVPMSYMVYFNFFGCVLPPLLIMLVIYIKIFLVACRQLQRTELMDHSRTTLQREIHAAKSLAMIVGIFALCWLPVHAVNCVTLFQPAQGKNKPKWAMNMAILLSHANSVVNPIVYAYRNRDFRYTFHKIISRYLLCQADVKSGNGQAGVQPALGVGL
# Assay Comment: Displacement of [3H]DPCPX from human adenosine A2B receptor expressed in HEK293 cell membranes at 1 uM incubated for 30 mins by scintillation counting method
# Assay Conditions: Cell membrane
inhibition by entry:
Report the figure in % without appending any unit label.

Worked examples, 2 molecules total:
# Molecule, Test Readout, Value
measured = [
    ("CC1=C(C(=O)C2CC2)C(c2ccoc2)NC(=O)N1 (racemic)", "inhibition", 10),
    ("CC1=C(C(=O)OCC(C)C)C(c2cccs2)NC(S)=N1 (racemic)", "inhibition", 12),
]

### Prompt State recorded inhibition with Adenosine receptor A2b (Homo sapiens) (UniProt P29275), entry CC1=C(C(=O)OC(C)(C)C)C(c2ccsc2)NC(=S)N1 (racemic) , no comment.
### Response 26
